tgt: Rap guanine nucleotide exchange factor 3 (Homo sapiens) (UniProt O95398)
Sequence (O95398 whole entry, looked up): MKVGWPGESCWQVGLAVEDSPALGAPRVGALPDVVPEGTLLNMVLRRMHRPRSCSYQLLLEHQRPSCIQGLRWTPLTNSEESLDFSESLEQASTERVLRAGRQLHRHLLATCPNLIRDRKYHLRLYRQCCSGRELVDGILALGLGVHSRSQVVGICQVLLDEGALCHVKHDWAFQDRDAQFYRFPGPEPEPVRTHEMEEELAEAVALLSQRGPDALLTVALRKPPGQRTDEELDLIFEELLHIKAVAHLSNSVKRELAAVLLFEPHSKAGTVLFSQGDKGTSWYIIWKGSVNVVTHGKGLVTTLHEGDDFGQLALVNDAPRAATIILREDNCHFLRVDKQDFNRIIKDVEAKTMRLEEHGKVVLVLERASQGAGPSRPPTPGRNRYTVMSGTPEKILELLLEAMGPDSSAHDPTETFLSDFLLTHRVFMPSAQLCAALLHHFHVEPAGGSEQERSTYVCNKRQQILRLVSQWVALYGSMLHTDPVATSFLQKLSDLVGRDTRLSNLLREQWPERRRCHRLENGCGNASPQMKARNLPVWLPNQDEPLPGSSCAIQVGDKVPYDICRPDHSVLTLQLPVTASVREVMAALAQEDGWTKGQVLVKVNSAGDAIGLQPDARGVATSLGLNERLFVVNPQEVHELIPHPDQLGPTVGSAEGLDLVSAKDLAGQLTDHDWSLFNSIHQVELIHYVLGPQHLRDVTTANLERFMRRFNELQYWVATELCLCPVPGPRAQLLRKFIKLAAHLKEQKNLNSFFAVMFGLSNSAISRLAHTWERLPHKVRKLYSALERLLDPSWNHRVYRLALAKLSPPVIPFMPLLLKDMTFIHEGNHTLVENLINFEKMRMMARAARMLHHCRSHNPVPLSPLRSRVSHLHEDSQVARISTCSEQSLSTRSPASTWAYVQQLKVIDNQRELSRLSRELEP
assay-protocol: Counterscreen qHTS for antagonist of cAMP-regulated guanine nucleotide exchange factor 3 (EPAC1) (AID 1645888);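 further: fluorescence loss as bound BODIPY-GDP is released from Rap1B; % of control where 0% means no effect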
study-conditions: Rap1B-BODIPY-GDP nucleotide exchange, fluorescence; series mostly up to 154 µM
Results filed as inconclusive are left out. The source made the active and inactive calls. The call rests on the fitted dose curve; in most records, active means well fitted inhibition curve with a large enough effect; inconclusive means small, poorly fitted or top-dose-only effect; inactive means no such curve, though single readings can be large or run the other way.
attribute-measured: activity change, negative = inhibition

Some compounds with known activity change, negative = inhibition results, for comparison:
[
  {
    "compound": "CCSc1oc(-c2cccs2)nc1S(=O)(=O)c1ccccc1",
    "tgt": "Rap guanine nucleotide exchange factor 3 (Homo sapiens) (UniProt O95398)",
    "val": "inactive"
  },
  {
    "compound": "COc1ccc(-c2cc(C(F)(F)F)nc(SCC(=O)N3CCCCC3C)n2)cc1OC (stereo not drawn)",
    "tgt": "Rap guanine nucleotide exchange factor 3 (Homo sapiens) (UniProt O95398)",
    "val": "inactive"
  },
  {
    "compound": "COc1ccc(Br)cc1/C=N/Nc1ccc(S(=O)(=O)Nc2ccccc2C(=O)O)cc1[N+](=O)[O-]",
    "tgt": "Rap guanine nucleotide exchange factor 3 (Homo sapiens) (UniProt O95398)",
    "val": "-3.11% [at 30.8 µM] (inactive)"
  },
  {
    "compound": "COc1ccc(NC(=O)CSc2nc(O)cc(=O)n2-c2ccc(OC)cc2)cc1",
    "tgt": "Rap guanine nucleotide exchange factor 3 (Homo sapiens) (UniProt O95398)",
    "val": "inactive"
  },
  {
    "compound": "Cc1ccc2nc(-c3ccc(NC(=O)CSc4nccc(=O)[nH]4)cc3)sc2c1",
    "tgt": "Rap guanine nucleotide exchange factor 3 (Homo sapiens) (UniProt O95398)",
    "val": "inactive"
  },
  {
    "compound": "Cc1cccc(C)c1Nc1c(-c2ccc(Cl)s2)nc2ncccn12",
    "tgt": "Rap guanine nucleotide exchange factor 3 (Homo sapiens) (UniProt O95398)",
    "val": "inactive"
  }
]

Qu. // Input: Cn1c(SCC(=O)c2cc(Cl)c(Cl)s2)nnc1-c1ccco1 . Output its activity change, negative = inhibition only.
Ans. inactive

Qu. // Input: CC1CCC/C(=C\Nc2ccc(O)cc2)C1=O (stereo not drawn) . Output its activity change, negative = inhibition only.
Ans. -12.6% [at 30.8 µM] (inactive)

Qu. // Input: COc1ccc2[nH]cc(S(=O)(=O)c3ccc(C)cc3)c2c1 . Output its activity change, negative = inhibition only.
Ans. inactive

Qu. // Input: COc1cccc(-n2c(SCC(=O)Nc3ccc(F)cc3F)nc3c([nH]c4ccccc43)c2=O)c1 . Output its activity change, negative = inhibition only.
Ans. inactive

Qu. // Input: CC1=NN(c2ccccc2)C(=O)C1C(=O)c1cc([N+](=O)[O-])cc([N+](=O)[O-])c1 (stereo not drawn) . Output its activity change, negative = inhibition only.
Ans. inactive

Qu. // Input: CCOC(=O)c1c(C)oc2nc(C)nc(N(C)Cc3ccccc3)c12 . Output its activity change, negative = inhibition only.
Ans. inactive
